UniProt:Q05397: reported pIC50 for various molecules.
pIC50: −log10 of the molar value.
Measured Property: pIC50

1 = CCC(=O)N1CCC[C@@H](Nc2nc(Nc3ccc4c(c3)OCCOCCOCCO4)nc3[nH]cnc23)C1
2 = CN([C@@H]1CCCC[C@H]1Oc1nc(Nc2ccc3c(c2)OCCOCCOCCO3)nc2[nH]ccc12)S(C)(=O)=O
INPUT: Which value of pIC50 is numerically greater: that of 1 or that of 2 ? Provide the label of your selected option as the answer.
OUTPUT: 2
(2: 7.46, 1: 5.94)

---

- Target Desc: UniProt:Q05397
- Measurement Protocol: Cell-based FAK(Y397) phosphorylation ELISA in PC3 cells
- Protocol Conditions: 1 hr treatment, read-out: EC50 phospho-FAK(Y397)
Below: a set of entries, each annotated with reported EC50.

{"Compound Structure": "CN(c1cnccc1CNc1nc(Nc2ccc3c(c2)OCCOCCOCCO3)nc2[nH]ccc12)S(C)(=O)=O", "Target Desc": "UniProt:Q05397", "EC50": "100 to 1000 nM"}
{"Compound Structure": "CN([C@@H]1CCC[C@H]1Oc1nc(Nc2ccc3c(c2)OCCOCCOCCO3)nc2[nH]ncc12)S(C)(=O)=O", "Target Desc": "UniProt:Q05397", "EC50": "100 to 1000 nM"}

Now examine the next entry.
compound C=CC(=O)Nc1ccccc1Nc1nc(Nc2ccc3c(c2)OCCOCCOCCO3)nc2[nH]cnc12 , EC50 observed: < 100 nM

---

ITK (Homo sapiens (Human), UniProt Q08881): reported pIC50 for various compounds.
Sequence (Q08881 whole entry): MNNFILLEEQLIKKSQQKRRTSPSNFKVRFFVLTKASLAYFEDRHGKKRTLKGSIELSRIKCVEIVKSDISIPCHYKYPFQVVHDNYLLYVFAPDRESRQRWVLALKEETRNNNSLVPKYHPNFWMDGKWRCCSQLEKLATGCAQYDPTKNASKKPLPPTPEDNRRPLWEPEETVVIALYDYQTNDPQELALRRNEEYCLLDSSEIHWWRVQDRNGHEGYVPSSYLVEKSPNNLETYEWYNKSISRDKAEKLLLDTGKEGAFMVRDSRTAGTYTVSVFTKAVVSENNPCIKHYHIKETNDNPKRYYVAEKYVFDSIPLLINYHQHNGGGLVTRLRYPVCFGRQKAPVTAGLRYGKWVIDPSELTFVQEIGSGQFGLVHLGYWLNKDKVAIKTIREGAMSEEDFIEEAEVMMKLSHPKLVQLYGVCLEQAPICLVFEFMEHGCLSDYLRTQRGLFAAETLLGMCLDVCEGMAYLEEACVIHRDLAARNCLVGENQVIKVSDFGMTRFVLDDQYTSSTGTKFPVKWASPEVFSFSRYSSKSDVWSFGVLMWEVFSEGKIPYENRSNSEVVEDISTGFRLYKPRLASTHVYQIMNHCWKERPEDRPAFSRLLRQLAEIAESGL
pIC50: −log10 of the molar value.

Reference set (3 entries):
{"Compound": "C=CC(=O)Nc1cccc(Nc2nc(Nc3ccc4c(c3)OCCOCCOCCO4)ncc2F)c1 [Compound-6]", "pIC50": "> 7.00"}
{"Compound": "C=CC(=O)Nc1cccc(Nc2nc(Nc3ccc(OCCCOC4(CC)OCC(C)(C)CO4)cc3)ncc2F)c1 [Compound-5]", "pIC50": "> 7.00"}
{"Compound": "C=CC(=O)Nc1ccccc1Nc1nc(Nc2ccc3c(c2)OCCOCCOCCO3)ncc1F [Compound-10]", "pIC50": "< 7.00"}

Now examine the next entry.
Record CCC(=O)N1CCC[C@@H](Nc2nc(Nc3ccc4c(c3)OCCOCCOCCO4)nc3[nH]cnc23)C1 [Compound-4] has ITK (Homo sapiens (Human), UniProt Q08881) pIC50 equal to 5.84

---

pIC50: −log10 of the molar value.
EGFR wt (Homo sapiens (Human), UniProt P00533): reported pIC50 for various molecules.
Sequence (P00533 25-1210): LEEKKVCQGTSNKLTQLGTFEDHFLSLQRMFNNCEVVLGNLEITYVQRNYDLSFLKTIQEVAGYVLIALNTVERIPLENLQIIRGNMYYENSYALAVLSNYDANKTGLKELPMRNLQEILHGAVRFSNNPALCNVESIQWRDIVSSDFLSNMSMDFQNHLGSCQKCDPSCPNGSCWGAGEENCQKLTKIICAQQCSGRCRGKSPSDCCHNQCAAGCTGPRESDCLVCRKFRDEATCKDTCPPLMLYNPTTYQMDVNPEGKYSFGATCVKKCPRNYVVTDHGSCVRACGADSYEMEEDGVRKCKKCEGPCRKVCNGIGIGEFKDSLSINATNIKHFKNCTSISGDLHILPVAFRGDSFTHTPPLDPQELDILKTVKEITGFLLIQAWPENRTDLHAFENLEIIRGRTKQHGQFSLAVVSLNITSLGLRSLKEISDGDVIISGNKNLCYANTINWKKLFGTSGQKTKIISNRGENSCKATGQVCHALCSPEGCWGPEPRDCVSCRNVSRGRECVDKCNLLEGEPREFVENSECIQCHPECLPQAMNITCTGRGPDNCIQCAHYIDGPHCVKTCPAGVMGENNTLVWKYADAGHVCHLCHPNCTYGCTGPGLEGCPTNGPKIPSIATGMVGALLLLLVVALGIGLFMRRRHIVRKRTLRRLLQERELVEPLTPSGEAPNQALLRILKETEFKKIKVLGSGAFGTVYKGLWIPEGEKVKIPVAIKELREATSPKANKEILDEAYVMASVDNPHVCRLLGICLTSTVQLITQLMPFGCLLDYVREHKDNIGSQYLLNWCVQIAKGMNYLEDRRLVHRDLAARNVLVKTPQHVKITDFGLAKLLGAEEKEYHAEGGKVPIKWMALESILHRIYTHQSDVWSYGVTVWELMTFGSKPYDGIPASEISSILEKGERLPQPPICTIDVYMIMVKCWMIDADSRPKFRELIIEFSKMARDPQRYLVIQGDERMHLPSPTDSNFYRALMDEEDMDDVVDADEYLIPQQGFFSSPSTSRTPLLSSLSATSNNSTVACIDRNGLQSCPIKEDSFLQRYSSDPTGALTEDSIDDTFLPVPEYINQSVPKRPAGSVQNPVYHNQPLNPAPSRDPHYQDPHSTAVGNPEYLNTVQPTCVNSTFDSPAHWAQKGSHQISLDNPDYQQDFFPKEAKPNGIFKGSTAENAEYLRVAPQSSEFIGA
Measured Property: pIC50

P = C=CC(=O)N1CCC[C@@H](Nc2nc(Nc3ccc4c(c3)OCCOCCOCCO4)nc3[nH]cnc23)C1
Q = C=CC(=O)Nc1cccc(Nc2nc(Nc3ccc4c(c3)OCCOCCOCCO4)nc3[nH]cnc23)c1
R = C=CC(=O)Nc1cccc(Nc2nc(Nc3ccc4c(c3)OCCOCCOCCO4)ncc2F)c1
INPUT: Descending sort on pIC50 required. Thanks in advance for listing the labels in the requested order.
OUTPUT: Q, P, R

---

ITK (Homo sapiens (Human)): reported IC50 for various compounds.
Measured Property: IC50 (nM)

P = C=CC(=O)Nc1ccccc1Nc1nc(Nc2ccc3c(c2)OCCOCCOCCO3)nc2[nH]cnc12
Q = CCC(=O)Nc1ccccc1Nc1nc(Nc2ccc3c(c2)OCCOCCOCCO3)nc2[nH]cnc12
R = C=CC(=O)Nc1cccc(Nc2nc(Nc3ccc4c(c3)OCCOCCOCCO4)nc3[nH]cnc23)c1
INPUT: Descending sort on IC50 required. Thanks in advance for listing the labels in the requested order.
OUTPUT: Q, P, R
(Q: 447 nM, P: 270 nM, R: 1.35 nM)
